- study-target: CXCL10 (Homo sapiens, UniProt P02778)
- Sequence (P02778 22-94): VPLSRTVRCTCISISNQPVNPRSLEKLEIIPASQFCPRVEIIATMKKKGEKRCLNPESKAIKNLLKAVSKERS
- assay-summary: ELISA
readout: Kd (nM)
Give your result in nM as a bare value.

Tell me the measured Kd of Fg β15-66 15-66 (protein) MKHLLLLLLCVFLVKSQGVNDNEEGFFSARGHRPLDKKREEAPSLRPAPPPI , please.
68
